biological target: human μ-opiate receptor (Homo sapiens); test: Affinity for the human μ-opiate receptor ([3H]-naloxone displacement, SPA, CHO-K1 membrane preparation); format: binding; conditions: [3H]-naloxone, human μ-opiate receptor membranes; read-out: μ-Opioid receptor, Ki
Sequence (P35372 whole entry): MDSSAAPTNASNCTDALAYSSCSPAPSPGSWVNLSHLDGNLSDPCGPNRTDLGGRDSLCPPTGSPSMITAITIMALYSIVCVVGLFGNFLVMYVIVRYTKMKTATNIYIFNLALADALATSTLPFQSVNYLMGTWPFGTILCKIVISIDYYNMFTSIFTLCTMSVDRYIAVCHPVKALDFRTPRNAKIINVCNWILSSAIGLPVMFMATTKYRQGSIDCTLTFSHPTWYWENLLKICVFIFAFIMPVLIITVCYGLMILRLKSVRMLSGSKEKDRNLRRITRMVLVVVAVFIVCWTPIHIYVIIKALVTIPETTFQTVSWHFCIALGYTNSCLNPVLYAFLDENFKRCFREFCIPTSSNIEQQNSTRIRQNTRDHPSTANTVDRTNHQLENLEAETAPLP
result type: Ki (µM)
Only the number, expressed in µM, is required.

Example entries and their recorded answers appear below.
CN(C)C(c1cccs1)C1CCC(CN)CC1 (stereo not drawn) : 0.24
CN(C)C(c1ccccc1)C1CCC(N)CC1 (stereo not drawn) : 0.44

--- query ---
Which Ki is listed for CN(C)C(c1cccs1)C1CCC(N)CC1 (stereo not drawn) ?
0.26

* * *

target: Noradrenaline (NA) reuptake (Rattus norvegicus, UniProt Q63380); construct: synaptosomes are freshly isolated from areas of rat brain; from tissue; host or cells: rat hypothalamus synaptosomes (P2 fraction); assay: Noradrenaline (NA) reuptake inhibition in rat brain synaptosomes (hypothalamus, P2 fraction); type: biochemical; conditions: rat brain synaptosomes (hypothalamus); read-out: NA reuptake, Ki
Sequence (Q63380 1-617): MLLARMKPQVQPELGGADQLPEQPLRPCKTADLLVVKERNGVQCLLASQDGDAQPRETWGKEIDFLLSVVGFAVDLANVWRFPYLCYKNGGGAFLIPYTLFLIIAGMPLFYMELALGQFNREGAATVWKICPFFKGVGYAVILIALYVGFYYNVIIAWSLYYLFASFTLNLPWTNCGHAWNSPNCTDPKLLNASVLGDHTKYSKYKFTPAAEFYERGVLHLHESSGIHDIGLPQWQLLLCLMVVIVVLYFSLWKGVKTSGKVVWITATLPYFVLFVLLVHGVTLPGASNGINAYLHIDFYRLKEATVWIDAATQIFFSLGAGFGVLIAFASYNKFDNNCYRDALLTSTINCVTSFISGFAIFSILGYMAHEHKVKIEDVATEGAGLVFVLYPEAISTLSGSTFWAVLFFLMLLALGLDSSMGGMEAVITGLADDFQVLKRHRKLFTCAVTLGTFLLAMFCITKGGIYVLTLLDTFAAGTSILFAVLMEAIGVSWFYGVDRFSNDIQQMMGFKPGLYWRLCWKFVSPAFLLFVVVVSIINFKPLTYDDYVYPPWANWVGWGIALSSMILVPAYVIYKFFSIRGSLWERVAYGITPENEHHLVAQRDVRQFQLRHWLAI
result type: Ki (nM)
Only the number, expressed in nM, is required.

Which Ki is listed for CN(C)C(c1ccccc1)C1CCC(N)CC1 (stereo not shown) ?
870
